Values compiled from patent US10760052B2.

Measured Concentration of FLNA-Binding Compound as Agonist 1 μM, listed per entry.
# experimental_system: mu opiate receptor (MOR) (Rattus norvegicus, UniProt P33535)
# Construct: from tissue; host or cells: striatum (membrane preparation)
# Sequence (P33535 whole entry): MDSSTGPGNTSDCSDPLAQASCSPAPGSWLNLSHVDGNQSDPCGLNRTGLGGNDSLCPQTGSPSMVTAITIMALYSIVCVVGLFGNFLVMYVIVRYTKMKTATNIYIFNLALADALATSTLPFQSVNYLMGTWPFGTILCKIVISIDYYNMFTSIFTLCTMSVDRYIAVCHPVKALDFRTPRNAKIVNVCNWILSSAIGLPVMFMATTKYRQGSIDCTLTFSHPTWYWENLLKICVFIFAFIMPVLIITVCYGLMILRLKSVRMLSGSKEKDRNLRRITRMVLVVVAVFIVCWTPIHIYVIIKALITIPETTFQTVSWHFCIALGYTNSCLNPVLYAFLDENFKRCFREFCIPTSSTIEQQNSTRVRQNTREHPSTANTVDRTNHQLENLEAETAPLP
# Assay type: biochemical
# test_settings: [35S]GTPγS binding to Gαo in striatal membranes; compound 1 μM
Field format: number, assumed %, no unit text.

Some entries whose results are on file:
COc1ccc(C(=O)CC2c3c(cc4c(c3OC)OCO4)CC[N+]2(C)C)cc1 (stereo not drawn) | 285.9
CC1CCC(C(C)C)C(OCC(O)CN2CCC(=O)CC2)C1 (stereo not drawn) | 158.2
CC1CCC(C(C)C)C(OCC(O)CN2CCN(CCc3ccccc3)CC2)C1 (stereo not drawn) | 217.4
O=C(OCc1ccccc1)c1ccc(S(=O)(=O)N2CCC3(CC2)OCCN3S(=O)(=O)c2ccc(C(=O)OCc3ccccc3)cc2)cc1 | 260.9
OC(COc1cccc(C(F)(F)F)c1)CN1CCc2ccccc2C1 (stereo not drawn) | 159.2

Challenge: Reported Concentration of FLNA-Binding Compound as Agonist 1 μM, compound CC(=O)c1ccc(C(=O)N2CCC3(CC2)OCCN3S(=O)(=O)c2ccc(C(C)=O)cc2)cc1 : ____
Response given: 162.8

Challenge: Recorded Concentration of FLNA-Binding Compound as Agonist 1 μM for COc1c2c(cc3c1C(CC(=O)Cc1ccccc1C)[N+](C)(C)CC3)OCO2 (stereo not drawn) , please?
Response given: 272.0

Challenge: Need Concentration of FLNA-Binding Compound as Agonist 1 μM of O=S(=O)(c1ccc(F)c(F)c1)N1CCC2(CC1)OCCN2S(=O)(=O)c1ccc(F)c(F)c1 , thanks.
Response given: 259.1
